The reported measurements were obtained from the supplement of paper PMC11246515.

Property: total protein half-life in vivo; scope: individual sequences
# RUN DESCRIPTION: total protein half-life in vivo (active degradation + dilution); higher = more stable protein
# ASSAY CONTEXT: wild type E. coli NCM3722; growth: P-lim chemostat; doubling time 6 h
MEASURE NAME: total protein half-life in vivo (h)

[
  {
    "BIOPOLYMER SEQUENCE": "MSTIEERVKKIIGEQLGVKQEEVTNNASFVEDLGADSLDTVELVMALEEEFDTEIPDEEAEKITTVQAAIDYINGHQA [P0A6A8]",
    "UNITS SYMBOL": "h",
    "ASSAY RESULT": 5
  },
  {
    "BIOPOLYMER SEQUENCE": "MANNTTGFTRIIKAAGYSWKGLRAAWINEAAFRQEGVAVLLAVVIACWLDVDAITRVLLISSVMLVMIVEILNSAIEAVVDRIGSEYHELSGRAKDMGSAAVLIAIIVAVITWCILLWSHFG [P0ABN1]",
    "UNITS SYMBOL": "h",
    "ASSAY RESULT": 5.54
  },
  {
    "BIOPOLYMER SEQUENCE": "MHYQPKQDLLNDRIILVTGASDGIGREAAMTYARYGATVILLGRNEEKLRQVASHINEETGRQPQWFILDLLTCTSENCQQLAQRIAVNYPRLDGVLHNAGLLGDVCPMSEQNPQVWQDVMQVNVNATFMLTQALLPLLLKSDAGSLVFTSSSVGRQGRANWGAYAASKFATEGMMQVLADEYQQRLRVNCINPGGTRTAMRASAFPTEDPQKLKTPADIMPLYLWLMGDDSRRKTGMTFDAQPGRKPGISQ",
    "UNITS SYMBOL": "h",
    "ASSAY RESULT": 6.22
  },
  {
    "BIOPOLYMER SEQUENCE": "MRNLVKYVGIGLLVMGLAACDDKDTNATAQGSVAESNATGNPVNLLDGKLSFSLPADMTDQSGKLGTQANNMHVWSDATGQKAVIVIMGDDPKEDLAVLAKRLEDQQRSRDPQLQVVTNKAIELKGHKMQQLDSIISAKGQTAYSSVILGNVGNQLLTMQITLPADDQQKAQTTAENIINTLVIQ [P0AEE1]",
    "UNITS SYMBOL": "h",
    "ASSAY RESULT": 5.55
  }
]

* * *

# RUN DESCRIPTION: total protein half-life in vivo (active degradation + dilution); higher = more stable protein
# ASSAY CONTEXT: wild type E. coli NCM3722; growth: C-lim chemostat; doubling time 12 h
Reported total protein half-life in vivo is given for each of the following sequences.

[
  {
    "BIOPOLYMER SEQUENCE": "MMQPVINAPEIATAREQQLFNGKNFHVFIYNKTESISGLHQHDYYEFTLVLTGRYFQEINGKRVLLERGDFVFIPLGSHHQSFYEFGATRILNVGISKRFFEQHYLPLLPYCFVASQVYRTNNAFLTYVETVISSLNFRETGLEEFVEMVTFYVINRLRHYREEQVIDDVPQWLKSTVEKMHDKEQFSESALENMVALSAKSQEYLTRATQRYYGKTPMQIINEIRINFAKKQLEMTNYSVTDIAFEAGYSSPSLFIKTFKKLTSFTPKSYRKKLTEFNQ",
    "total protein half-life in vivo / h": 1.55
  },
  {
    "BIOPOLYMER SEQUENCE": "MKKLVLSLSLVLAFSSATAAFAAIPQNIRIGTDPTYAPFESKNSQGELVGFDIDLAKELCKRINTQCTFVENPLDALIPSLKAKKIDAIMSSLSITEKRQQEIAFTDKLYAADSRLVVAKNSDIQPTVESLKGKRVGVLQGTTQETFGNEHWAPKGIEIVSYQGQDNIYSDLTAGRIDAAFQDEVAASEGFLKQPVGKDYKFGGPSVKDEKLFGVGTGMGLRKEDNELREALNKAFAEMRADGTYEKLAKKYFDFDVYGG [P0AEU0]",
    "total protein half-life in vivo / h": 13.1
  },
  {
    "BIOPOLYMER SEQUENCE": "MSAKHPVIAVTGSSGAGTTTTSLAFRKIFAQLNLHAAEVEGDSFHRYTRPEMDMAIRKARDAGRHISYFGPEANDFGLLEQTFIEYGQSGKGKSRKYLHTYDEAVPWNQVPGTFTPWQPLPEPTDVLFYEGLHGGVVTPQHNVAQHVDLLVGVVPIVNLEWIQKLIRDTSERGHSREAVMDSVVRSMEDYINYITPQFSRTHLNFQRVPTVDTSNPFAAKGIPSLDESFVVIHFRNLEGIDFPWLLAMLQGSFISHINTLVVPGGKMGLAMELIMLPLVQRLMEGKKIE [P0AEX5]",
    "total protein half-life in vivo / h": 11.8
  }
]
